System: Human lymphoma SCC-3 cells
Method notes: SCC-3 cell growth inhibition test (MTT method)
Assay type: cell-based
Particulars: Homo sapiens, 72-hour culture, read-out: Cell growth inhibitory activity (IC50: μM)
Catalogue of IC50 values
Express your answer in µM, writing the number without its unit.

Entry under test: "Cc1ccc2nc(-c3ccccc3)cc(C(=O)Nc3nnc(-c4ccco4)o3)c2c1" . Its IC50 was 1.9

* * *

System: STAT3
Method notes: STAT3 transcription inhibition test (reporter gene method, oncostatin M stimulation)
Type: cell-based
Particulars: Homo sapiens; compound at 100 μM; STAT3 reporter HeLa stable cell line; oncostatin M 10 ng/mL, 4 hours; read-out: STAT3 transcription inhibitory activity (%)
Recorded inhibition at 100 µM values for a group of compounds are listed next.
Numbers only; they are read as %.

{"columns": ["Entry smiles", "Unit text", "inhibition at 100 µM"],
 "data": [
  ["O=C(Nc1nnc(-c2ccccc2)o1)c1cc(-c2cccs2)nc2ccccc12", "%", 91]
]}

For this compound ( "O=C(Nc1nnc(-c2ccco2)o1)c1cc(-c2ccccc2)nc2ccc(F)cc12" ), measured inhibition at 100 µM is 90

Per the records, this compound ( "CCCC(=O)Nc1ccc2nc(-c3ccccc3)cc(C(=O)Nc3nnc(-c4ccco4)o3)c2c1" ) has inhibition at 100 µM equal to 89

Per the record, "COc1cccc(-c2cc(C(=O)Nc3nnc(-c4ccco4)o3)c3ccccc3n2)c1" has inhibition at 100 µM of 92

inhibition at 100 µM reported for this compound "N#Cc1cccc(-c2cc(C(=O)Nc3nnc(-c4ccco4)o3)c3ccccc3n2)c1" : 71

* * *

System: Human lymphoma SCC-3 cells
Method notes: SCC-3 cell growth inhibition test (MTT method)
Type: cell-based
Particulars: Homo sapiens, 72-hour culture, read-out: Cell growth inhibitory activity (IC50: μM)
# strict inequality: IC50 < 2 µM yields Criterion met, everything else yields Criterion not met

{"columns": ["Compound", "Category"],
 "data": [
  ["Cc1ccc(-c2cc(C(=O)Nc3nnc(-c4ccccc4)o3)c3ccccc3n2)cc1 [Ia-i]", "Criterion not met"],
  ["O=C(Nc1nnc(-c2ccco2)o1)c1cc(-c2ccccc2)nc2ccc(Cl)cc12 [Ia-22]", "Criterion met"],
  ["Cc1cc(C)c2nc(-c3cccs3)cc(C(=O)Nc3nnc(-c4ccco4)o3)c2c1 [Ia-33]", "Criterion met"],
  ["O=C(Nc1nnc(-c2ccco2)o1)c1cc(-c2ccccc2)nc2ccccc12 [Ia-1]", "Criterion not met"],
  ["O=C(Nc1nnc(-c2ccco2)o1)c1cc(-c2cccc3ccccc23)nc2ccccc12 [Ia-60]", "Criterion not met"],
  ["O=C(Nc1nnc(-c2ccco2)o1)c1cc(-c2ccc([N+](=O)[O-])cc2)nc2ccccc12 [Ia-52]", "Criterion not met"],
  ["O=C(Nc1nnc(-c2ccco2)o1)c1cc(-c2ccccc2)nc2ccc(F)cc12 [Ia-67]", "Criterion not met"]
]}

Pending compound:
[ask] Please check: IC50 for O=C(Nc1nnc(-c2ccco2)o1)c1cc(-c2ccccc2)nc2c(Cl)cc(Cl)cc12 [Ia-74] , strictly under 2 µM or not?
[reply] Criterion met

Where do these numbers come from? They come from patent US8466290B2.
